# Tested on: Staphylococcus aureus
# protocolSummary: Antibacterial activity against Staphylococcus aureus clinical isolate AD3 assessed as bacterial growth inhibition incubated for 24 hrs by broth microdilution method
# Assay type: functional
recordedMetric: MIC (µg/mL)

molecule="C=C[C@]1(C)C[C@@H](OC(=O)CO)C2(C)[C@H](C)CCC3(CCC(=O)[C@H]32)[C@@H](C)[C@@H]1O (some centres undefined)" observedvalue=2
molecule=C=C[C@]1(C)C[C@@H](OC(=O)Cn2cc(CN3CCN(c4ccc([N+](=O)[O-])cc4)CC3)nn2)[C@@]2(C)[C@@H]3C(=O)CC[C@@]3(CC[C@@H]2C)[C@@H](C)[C@@H]1O observedvalue=0.5
molecule=C=C[C@]1(C)C[C@@H](OC(=O)Cn2cc(CN3CCN(c4ccccc4C)CC3)nn2)[C@@]2(C)[C@@H]3C(=O)CC[C@@]3(CC[C@@H]2C)[C@@H](C)[C@@H]1O observedvalue=0.5
molecule=C=C[C@]1(C)C[C@@H](OC(=O)Cn2cc(CN3CCN(c4ccccc4[N+](=O)[O-])CC3)nn2)[C@@]2(C)[C@@H]3C(=O)CC[C@@]3(CC[C@@H]2C)[C@@H](C)[C@@H]1O observedvalue=0.5

###

# Tested on: Escherichia coli
# protocolSummary: Antibacterial activity against Escherichia coli assessed as bacterial growth inhibition by broth microdilution method
# Assay type: functional
recordedMetric: MIC

chemicalstructure=COC(=O)[C@H](Cc1cn(Cc2cn(-c3ccccc3[N+](=O)[O-])nn2)c2ccccc12)NC(=O)[C@@H](C)c1ccc2cc(OC)ccc2c1 observedvalue="25 mg/L"
chemicalstructure=CC1(C)S[C@@H]2[C@H](NC(=O)[C@H](N)c3ccccc3)C(=O)N2[C@H]1C(=O)O observedvalue="4 mg/L"
chemicalstructure=CC(=O)Nc1ccc(S(=O)(=O)n2cc(CN3CCS(=O)(=O)CC3)nn2)cc1 observedvalue="1.56 mg/L"
chemicalstructure=CC1(C)S[C@@H]2[C@H](NC(=O)[C@H](N)c3ccc(O)cc3)C(=O)N2[C@H]1C(=O)O observedvalue="25 mg/L"

###

The following compounds are shown together with reported MIC values.
# System: Pseudomonas aeruginosa
# protocolSummary: Antibacterial activity against Pseudomonas aeruginosa assessed as bacterial growth inhibition by serial dilution method
# Type: functional
recordedMetric: MIC (µg/mL)

chemicalstructure=COc1ccc(-n2cc(COc3ccccc3/C=N/NC(N)=O)nn2)cc1 observedvalue=25
chemicalstructure=NC(=O)N/N=C/c1ccccc1OCc1cn(-c2ccc(Cl)cc2)nn1 observedvalue=25
chemicalstructure=NC(=S)N/N=C/c1ccccc1OCc1cn(Cc2ccc(Br)cc2)nn1 observedvalue=6.25
chemicalstructure=NC(=O)N/N=C/c1ccccc1OCc1cn(-c2ccc(Br)cc2)nn1 observedvalue=25
chemicalstructure=NC(=O)N/N=C/c1ccccc1OCc1cn(-c2ccccc2)nn1 observedvalue=25
chemicalstructure=NC(=O)N/N=C/c1ccccc1OCc1cn(-c2ccc(F)cc2)nn1 observedvalue=25

###

# Tested on: Streptococcus pneumoniae
# protocolSummary: Antibacterial activity against erythromycin-resistant Streptococcus pneumoniae B1 expressing ermB assessed as bacterial growth inhibition incubated for 24 hrs by CLSI based broth microdilution method
# Assay type: functional
recordedMetric: MIC (mg/L)

compound="CCCCCc1ccc(-c2cn(CC(=O)NNC(=O)O[C@H]3[C@H](C)[C@@H](O[C@H]4O[C@@H](C)C[C@@H](N(C)C)[C@@H]4O)[C@](C)(O)C[C@@H](C)CN(C)[C@H](C)C4OC(=O)O[C@@]4(C)[C@@H](CC)OC(=O)[C@@H]3C)nn2)cc1 (some centres undefined)" measurementunit=mg/L qual== observedvalue=4
compound=O=C(N[C@H](CO)[C@H](O)c1ccc([N+](=O)[O-])cc1)C(Cl)Cl measurementunit=mg/L qual=> observedvalue=256
compound=CC[C@H]1OC(=O)[C@H](C)[C@@H](O[C@H]2C[C@@](C)(OC)[C@@H](O)[C@H](C)O2)[C@H](C)[C@@H](O[C@@H]2O[C@H](C)C[C@H](N(C)C)[C@H]2O)[C@](C)(O)C[C@@H](C)CN(C)[C@H](C)[C@@H](O)[C@]1(C)O measurementunit=mg/L qual=> observedvalue=256
compound=CCCCCc1ccc(-c2cn(CCCN3CCOC(=O)[C@H](C)[C@@H](O[C@H]4C[C@@](C)(OC)[C@@H](O)[C@H](C)O4)[C@H](C)[C@@H](O[C@H]4O[C@@H](C)C[C@@H](N(C)C)[C@@H]4O)[C@](C)(OC)C[C@@H](C)[C@H](O)[C@H](C)C3)nn2)cc1 measurementunit=mg/L qual== observedvalue=4
